quantityName: melting point

Solved entries:
compound: CCON=Cc1cc(-n2c(=O)n(C)c(=S)n(C)c2=O)ccc1Cl
quantityName: melting point
experimentalValue: 139 to 141 °C
//
compound: Cc1cc2c(s1)Oc1ccccc1N=C2N1CCN(CCO)CC1
quantityName: melting point
experimentalValue: 87 to 89 °C

What value of measured melting point is listed for O=C1NCN(c2ccccc2)C12CCN(CCCn1c(=O)[nH]c3cc(Cl)c(Cl)cc31)CC2 ?
275 °C

What value of measured melting point is listed for Fc1ccc2c(c1)nc(/C=C/C1CCCCC1)n2-c1ccccn1 ?
109 to 110 °C

What value of measured melting point is listed for O=S(=O)(c1ccc(Oc2ccccc2)cc1)c1cccc(S(=O)(=O)c2ccc(Oc3ccccc3)cc2)c1 ?
70 to 75 °C

What value of measured melting point is listed for CCC(CC)C1CC1(CN)C(=O)O (centres undefined) ?
255 to 257 °C

What value of measured melting point is listed for CC(C)(C)c1cccc(S(=O)(=O)n2c(Cc3ccc(C(=O)NS(=O)(=O)c4ccccc4)cc3)cc3cc(C(F)(F)F)ccc32)c1 ?
99 °C

What value of measured melting point is listed for Cc1cccc2cc3c(=O)n(CCOC(=O)NCCN(C)C)cc(C(=O)NCCN(C)C)c3nc12 ?
75 to 76 °C

What value of measured melting point is listed for O=C(SCC(SC(=O)c1ccccc1)C(=O)O)c1ccccc1 (centres undefined) ?
116 to 118 °C

====

Listing of entries alongside the reported melting point.

compound: Cc1ccc2c(-c3ccccc3)c([N+](=O)[O-])oc2c1
melting point: 142 to 144 °C
--
compound: COc1ccc2nc(NC(=O)c3nnn(Cc4ccc(Cl)c(Cl)c4)c3C)sc2c1
melting point: 225 °C

What value of measured melting point is listed for CC(Oc1ccc(Oc2cnc3cc(Cl)ccc3n2)cc1)C(=O)Nc1ccc(OC(F)(F)F)cc1 (centres undefined) ?
156 to 158 °C

What value of measured melting point is listed for CCCCCCOc1ccc(C(=O)c2cccc(C(=O)O)c2)c(C)c1 ?
136 to 138 °C

What value of measured melting point is listed for COc1cc(C(=O)NS(=O)(=O)c2ccccc2)ccc1Cn1ccc2ccc(N)cc21 ?
151 to 155 °C

What value of measured melting point is listed for COC(=O)c1cccc(C2C(C#N)=C(N)Oc3c2ccc2ncccc32)c1 (centres undefined) ?
203 to 206 °C

What value of measured melting point is listed for CCCCC1=NC2(CCCC2)C(=O)N1Cc1ccc(-c2ccccc2S(=O)(=O)Nc2onc(C)c2C)c(COCC)c1 ?
74 to 80 °C

====

Listing of entries alongside the reported melting point.

compound: O=S(=O)(c1ccc(F)cc1)c1ccc(SC2SCC(O)C(O)C2O)cc1 (stereo not given)
quantityName: melting point
experimentalValue: 136 to 138 °C
//
compound: COC(=O)CCCCCCCNC(=O)C(CSC(C)=O)Cc1ccccc1 (stereo not given)
quantityName: melting point
experimentalValue: 44 to 45 °C
//
compound: CN1CC(=O)Nc2cccc(Cl)c2C1=O
quantityName: melting point
experimentalValue: 230 to 232 °C

What value of measured melting point is listed for CC(=O)N1CCc2cc(C(=O)CCCCCl)ccc21 ?
90 to 91 °C

What value of measured melting point is listed for COC(=O)COc1cccc2c1S[C@@H](c1ccc(OC)cc1)[C@@H](O)C(=O)N2CCN(C)C (racemic) ?
152 to 160 °C

What value of measured melting point is listed for CC(OC(=O)Nc1ccc(-c2ncn(-c3ccc(C(F)(F)F)cc3)n2)cc1)c1ccc(C(F)(F)F)cc1 (stereo not given) ?
156 to 158 °C

What value of measured melting point is listed for CCOCCS(=O)(=O)C(F)(F)C(O)(Cn1cncn1)c1ccc(F)cc1F (stereo not given) ?
89 to 91 °C

What value of measured melting point is listed for COc1ccc2[nH]c3c(C(=O)Nc4ccc(CCCCN(C)Cc5ccc(OC)c(OC)c5)cc4)cccc3c(=O)c2c1 ?
172 °C

What value of measured melting point is listed for COC1CC2(C)C(CCC3C4CCC(C(=O)CBr)C4(C)CC(=O)C32)CC1O (stereo not given) ?
185 to 188 °C

What value of measured melting point is listed for COc1ccccc1/C=C/C(=O)Nc1cccc(NC(=N)c2ccccc2)c1 ?
219 to 221 °C

====

Listing of entries alongside the reported melting point.

What value of measured melting point is listed for CN(CCCCCCO)c1ccc(N=Nc2ccc(S(C)(=O)=O)cc2)cc1 ?
114 to 116 °C

====

quantityName: melting point

Solved entries:
compound: CC(=O)Nn1cc(-c2cccnc2)nc1Cl
melting point: 129 to 131 °C

compound: Oc1ccc2c(c1)OC(CNCCCc1c[nH]c3ccc(O)cc13)CO2 (stereo not given)
melting point: 140 to 144 °C

compound: CC(C)CC(=O)Nc1cccc(-c2ccnc3c(-c4ccc(Cl)c(Cl)c4)cnn23)c1
melting point: 215 to 217 °C

compound: CC(C)C1=C(C#N)C(c2ccccc2Cl)c2c[nH]nc2N1 (stereo not given)
melting point: > 250 °C

compound: O=C1CCN(CCCN2c3cccc4cccc(c34)S2(=O)=O)CC1
melting point: 108 °C

What value of measured melting point is listed for O=C(NCc1ccccc1)C1=C(C(=O)Nc2ccc(Cl)cc2F)CCCC1 ?
121 to 123 °C

What value of measured melting point is listed for O=c1[nH]c2c(Cl)ccc(Cl)c2c(=O)n1CCCN1CC=C(c2ccc(Cl)cc2)CC1 ?
207 to 209 °C

What value of measured melting point is listed for CCOC(=O)C1=C(C)NC(N=CN2CCCCC2)=C(C(=O)OCC)C1c1ccccc1Cl (stereo not given) ?
145 °C

What value of measured melting point is listed for CN(Cc1cc2c(=O)c(C(=O)NCc3ccc(Cl)cc3)cn(C)c2o1)CC(CO)c1ccccc1 (stereo not given) ?
141 to 148 °C

What value of measured melting point is listed for COC1=C(Cl)C(=O)NC1=Nc1ccccc1 ?
179 to 180 °C

====

quantityName: melting point (°C)
Respond numerically; units are °C and should not be typed.

Solved entries:
substanceSmiles: CCOc1cc(CCCN2CCc3cc(OC)c(OC)cc3C2)ccc1NC(=O)c1cccc2c(=O)c3cccc(F)c3[nH]c12
melting point / °C: 200
//
substanceSmiles: CC#CCOc1cc(OCC#CCC)ncn1
melting point / °C: 67.4
//
substanceSmiles: N#Cc1ccc(-c2ccc(OCCCCCC(=O)NO)cc2)cc1
melting point / °C: 129

What value of measured melting point is listed for COc1ccccc1-n1c(CSc2ncnc3[nH]cnc23)nc2cccc(Cl)c2c1=O ?
237

====

quantityName: melting point

Solved entries:
molecule: COCCNC(=O)c1cccc(-c2cccc3oc(Cc4ccc(F)c(Cl)c4)cc23)c1
melting point: 77 to 78 °C
//
molecule: CC1(C)CNc2cc(Br)ccc21
melting point: 100 to 102 °C
//
molecule: O=C(O)CCCn1c(=O)[nH]c2ccccc21
melting point: 180 °C
//
molecule: COC(=O)Cc1c(Br)csc1Br
melting point: 38.5 to 39 °C
//
molecule: O=C(Nc1nnn[nH]1)c1ccc2nc3ccsc3c(=O)n2c1
melting point: 295 to 296 °C

What value of measured melting point is listed for CN(C(=O)CCNC#N)c1nnc(-c2cccnc2)s1 ?
155 to 159 °C

What value of measured melting point is listed for CCCNC(=S)NS(=O)(=O)c1cc2c(cc1OC)OC(C)(C)C(NC(=O)c1cc(Cl)ccc1OC)C2 (stereo not given) ?
210 to 211 °C

====

Listing of entries alongside the reported melting point.

compound: C=CCSc1cc(C(=O)O)cc(N)c1Oc1ccccc1
quantityName: melting point
experimentalValue: 142 to 143 °C
--
compound: CC(=O)NNc1nc(C(F)(F)F)nc(-c2ccc(S(C)(=O)=O)cc2)c1-c1ccc(Cl)cc1
quantityName: melting point
experimentalValue: 254 to 256 °C
--
compound: CC1(CN2CCN(C(=O)OCc3ccc(C(=O)c4ccccc4)cc3)CC2)Cn2cc([N+](=O)[O-])nc2O1 (centres undefined)
quantityName: melting point
experimentalValue: 105 to 107 °C
--
compound: CCCCCCCCCC(O)CNCCCNCC(O)CCCCCCCCC (centres undefined)
quantityName: melting point
experimentalValue: 94 to 103 °C
--
compound: O=C(c1ccc([N+](=O)[O-])cc1)N1CCC(OCc2ccc(F)cc2)CC1
quantityName: melting point
experimentalValue: 120 °C
--
compound: CCOc1cc(C=[N+]([O-])C(C)(C)CC(C)(C)C)ccc1OC
quantityName: melting point
experimentalValue: 77.5 °C

What value of measured melting point is listed for O=C(CCl)N[C@H]1CC[C@H](O)CC1 ?
149 to 151 °C

What value of measured melting point is listed for CC1(C)CCN(C(=O)Nc2cccnc2)c2cc(C#N)ccc21 ?
183 to 185 °C

What value of measured melting point is listed for CCOC(=O)c1cn([C@@H]2C[C@@H]2F)c2cc(F)ccc2c1=O ?
227 to 230 °C

What value of measured melting point is listed for O=[N+]([O-])c1ccc2[nH]cc(CCCBr)c2c1 ?
92 to 95 °C

What value of measured melting point is listed for COC(=O)[C@H]1C[C@H](NC(=O)Cc2ccccc2)c2c(Cl)cc(Cl)cc2N1 (relative stereo) ?
226 to 228 °C

What value of measured melting point is listed for COc1cc(Nc2nccc(Nc3ccc(OCc4ccccc4)cc3)n2)cc(OC)c1OC ?
161 to 164 °C

What value of measured melting point is listed for CCNC(=O)c1c(C2CC2)nc(CC)n1Cc1ccc2oc(-c3ccccc3C(=O)O)c(Br)c2c1 ?
182 to 184 °C

What value of measured melting point is listed for CC(=O)N(c1ccc(N2CCN(C)CC2)cc1)c1ncc2c(n1)S/C(=C/c1ccc(C(=O)O)cc1)C(=O)N2 ?
326 to 330 °C

What value of measured melting point is listed for CCC1(C)CC(=O)C(C(=O)Nc2ccc(C(F)(F)F)cc2)C(=O)C1 (centres undefined) ?
99 to 100 °C

What value of measured melting point is listed for CCCCC(Cc1ccc(OCCNC(=O)c2ccc(-c3cccc(OC)c3)cc2)cc1)C(=O)O (centres undefined) ?
107 to 109 °C

What value of measured melting point is listed for CN1CC(CN2C(=O)c3ccccc3C2=O)CC2c3cc(C(C)(C)C)cc4[nH]cc(c34)CC21 (centres undefined) ?
132 to 137 °C

What value of measured melting point is listed for CCOC(=O)c1ccc(CCCCN2C(=O)c3ccccc3C2=O)cc1 ?
85 to 86 °C

What value of measured melting point is listed for O=NN(CCCl)C(=O)NCc1ccccn1 ?
70 °C
